The measured values listed here are drawn from ChEMBL document CHEMBL5308504.

# Study system: Fibroblast growth factor receptor 3 (Homo sapiens)
# Cond: Compound concentration 20.0 uM, Protein concentration 2.0 uM, Result type QC Liability
# Description: Thermal Shift Assay. Domain: start/stop: P449-E759
Lab note: anything with ΔTm at or over 0.7 °C counts as Satisfied; the rest go in Not satisfied.

# example entries with known answers
{"columns": ["Compound", "Discrete label"],
 "data": [
  ["CC(=O)c1ccc2c(c1)/C(=C(/NC1CCN(C)CC1)c1ccc3c(c1)OCO3)C(=O)N2", "Not satisfied"],
  ["O=C(O)CCCN1CCC[C@H]1COc1ccc(Oc2ccc(Cl)cc2)cc1", "Not satisfied"],
  ["CCCCCCC(Sc1nc(Cl)cc(NCc2ccc(-c3ccccc3)cc2)n1)C(=O)O (stereo not drawn)", "Satisfied"]
]}

// inclusive: ΔTm at least 0.7 °C? input: NS(=O)(=O)c1ccc(Nc2nc(OCC3CCCCC3)c3nc[nH]c3n2)cc1
Not satisfied

Dear colleague, could you confirm whether COc1cc(Cl)c(C(=O)N[C@@H](CN[C@H]2CC[C@@H](N)CC2)Cc2ccc(C#N)cc2)cc1-c1ccc(CN[C@H](C)c2ccc(C)cc2)o1 has ΔTm at or above 0.7 °C?
Satisfied

Record Cc1nnc2n1-c1sc3c(c1C(c1ccccc1Cl)=NC2)CC(C(=O)N1CCOCC1)C3 (stereo not drawn) ; criterion: ΔTm no lower than 0.7 °C. Met?
Not satisfied

* * *

# Study system: Peregrin (Homo sapiens)
# Cond: Compound concentration 20.0 uM, Protein concentration 2.0 uM, Result type QC Liability
Property: ΔTm (°C)
Give bare numbers, in °C.

Dear reader, for each entry below, please note its ΔTm.
1. CO[C@@H](C)CN1CC[C@]2(C)c3cc(O)ccc3C[C@H]1C2(C)C
2. Cn1cnc(Cn2ccc3ccc(CNCc4[nH]c5ccccc5c4[C@@H]4NC(=O)c5ccc(O)cc54)cc32)c1
3. Cc1cn(CCN2CCN(c3ccccc3-c3cc(C#N)cc(C(=O)NCCCN4CCCC4)c3)CC2)c2ccccc12
4. COc1cc(C(=O)NCCOCCOCCOCC(=O)N[C@H](C(=O)N2C[C@H](O)C[C@H]2C(=O)NCc2ccc(-c3scnc3C)cc2)C(C)(C)C)ccc1Nc1ncc(C(F)(F)F)c(Oc2cccc3c2C(=O)CC3)n1
5. CCN1C(=O)N(c2c(F)c(OC)cc(OC)c2F)Cc2cnc3[nH]c(CN4CCOCC4)cc3c21
6. COc1cc(CN(CCN)C(=O)N[C@@H](C)c2ccccc2)ccc1OCc1ccccc1
7. C[C@H](CCOc1cccc(CC(=O)O)c1)N(Cc1cccc(C(F)(F)F)c1Cl)CC(c1ccccc1)c1ccccc1

1. -3.01
2. -1.61
3. 0.42
4. -0.82
5. -0.68
6. -2.05
7. -4.82

Would you mind listing ΔTm for each of the following molecules?
1. CC1(C)C[C@@H]1C(=O)N/C(=C\CCCCSC[C@H](N)C(=O)O)C(=O)O
2. COc1cc(C)c(S(=O)(=O)N(C)CCC(=O)N[C@H]2CC[C@@H](N3CCC4CN(C)CC4C3)CC2)c(C)c1 (some centres not stated)
3. C=CC(=O)Nc1ccc(C(=O)Nc2[nH]nc3c2CN(C(=O)N[C@H](CN(C)C)c2ccccc2)C3(C)C)cc1
4. Cc1cc(=O)oc2cc(NC(=O)[C@H](Cc3ccc(I)cc3)NC(=O)[C@H]3N[C@@H]4CC[C@H]3C4)ccc12
5. CC(=O)c1c(C)c2cnc(Nc3ccn(C)n3)nc2n(C2CCCC2)c1=O
6. CCn1ccc(Nc2ncc3c(n2)-c2c(nn(C)c2-c2ccc(-c4cnn(C)c4)cc2Cl)CC3)n1

1: -2.3; 2: -3.59; 3: -0.82; 4: -1.46; 5: -0.34; 6: -0.93

// for each molecule below, give its ΔTm
1. CN(c1ccc(C(F)(F)F)cc1)S(=O)(=O)c1ccc(C(=O)Nc2nc(-c3ccccn3)cs2)cc1
2. Cc1sc(C(=O)c2cncnc2N[C@@H]2C[C@H](COS(N)(=O)=O)[C@@H](O)C2)cc1[C@@H]1NCCc2ccc(Cl)cc21
3. COc1cc2ncnc(Nc3ccc4c(cnn4Cc4ccccc4)c3)c2cc1OC

1. 7.54
2. -2.76
3. -1.65

For this molecule ( CC(C)N(CCCCOCC(=O)O)c1cnc(-c2ccccc2)c(-c2ccccc2)n1 ), measured ΔTm is -4.18
